run description: Inhibition of human MAOB […] mutant
value kind: Ki (µM)

1 = O=C1Nc2ccc(/C=C/c3cccc(Cl)c3)cc2C1=O
2 = O=C1Nc2ccc(/C=C/c3ccccc3)cc2C1=O
(Q) # return whichever of 1 and 2 has the smaller Ki Refer to your chosen item by its label in the answer.
(A) 2
(2: 1.1 µM, 1: 12.5 µM)

----------
run description: Inhibition of baboon liver MAOB
Set-up: species or system Papio hamadryas
value kind: IC50 (nM)

a = O=C1Nc2ccc(/C=C/c3ccccc3)cc2C1=O
b = O=C1Nc2ccc(/C=C/c3cccc(Cl)c3)cc2C1=O
(Q) Looking at a and b , which one comes out lower in IC50 terms? Choose, then provide that item's label.
(A) b
(b: 20.7 nM, a: 41.7 nM)

----------
measurement target: Amine oxidase [flavin-containing] B (Homo sapiens, UniProt P27338)
Sequence (P27338 whole entry): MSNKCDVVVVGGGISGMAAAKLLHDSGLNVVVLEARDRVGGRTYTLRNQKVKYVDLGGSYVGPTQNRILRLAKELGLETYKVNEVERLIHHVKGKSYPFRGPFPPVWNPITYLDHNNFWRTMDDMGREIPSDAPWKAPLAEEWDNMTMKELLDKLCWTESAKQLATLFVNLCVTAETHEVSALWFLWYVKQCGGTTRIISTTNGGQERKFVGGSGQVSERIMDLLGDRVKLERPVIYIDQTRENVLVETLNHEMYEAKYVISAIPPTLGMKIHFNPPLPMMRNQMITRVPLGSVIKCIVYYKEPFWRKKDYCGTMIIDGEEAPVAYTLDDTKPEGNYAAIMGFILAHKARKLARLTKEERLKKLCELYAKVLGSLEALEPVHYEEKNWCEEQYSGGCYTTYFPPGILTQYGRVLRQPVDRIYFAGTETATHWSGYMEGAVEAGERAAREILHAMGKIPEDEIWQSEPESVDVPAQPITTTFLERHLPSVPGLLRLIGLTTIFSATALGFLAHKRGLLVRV
run description: Inhibition of recombinant wild-type MAOB from human liver expressed in Pichia pastoris
value kind: Ki (nM)

a = O=C1Nc2ccc(/C=C/c3cccc(Cl)c3)cc2C1=O
b = O=C1Nc2ccc(/C=C/c3ccccc3)cc2C1=O
(Q) Between a and b , whose recorded Ki is greater? In your reply, give the label of the chosen option.
(A) a
